- system tested: Calpain-1 catalytic subunit (Homo sapiens)
- Sequence (P07384 whole entry): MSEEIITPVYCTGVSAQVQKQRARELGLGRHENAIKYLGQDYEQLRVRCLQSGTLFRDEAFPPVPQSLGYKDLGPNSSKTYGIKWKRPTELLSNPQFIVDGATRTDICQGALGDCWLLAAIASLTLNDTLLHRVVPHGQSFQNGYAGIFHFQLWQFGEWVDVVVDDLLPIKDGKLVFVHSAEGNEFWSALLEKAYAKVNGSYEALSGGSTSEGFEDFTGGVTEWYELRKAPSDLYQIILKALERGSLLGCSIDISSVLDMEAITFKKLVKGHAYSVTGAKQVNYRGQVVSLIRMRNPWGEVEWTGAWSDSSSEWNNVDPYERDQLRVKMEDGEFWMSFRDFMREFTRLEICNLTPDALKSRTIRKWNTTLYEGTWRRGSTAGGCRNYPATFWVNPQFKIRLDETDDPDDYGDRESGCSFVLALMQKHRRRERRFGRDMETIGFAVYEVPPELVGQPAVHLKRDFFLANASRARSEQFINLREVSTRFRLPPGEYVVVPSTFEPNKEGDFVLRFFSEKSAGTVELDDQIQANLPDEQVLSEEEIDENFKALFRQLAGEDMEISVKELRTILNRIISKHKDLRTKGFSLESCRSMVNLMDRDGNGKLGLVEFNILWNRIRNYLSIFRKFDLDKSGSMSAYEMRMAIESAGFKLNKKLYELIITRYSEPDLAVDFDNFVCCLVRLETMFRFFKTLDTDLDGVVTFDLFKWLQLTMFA
- protocol summary: Inhibition of calpain-1 (unknown origin) using Suc-LY-AMC as substrate by fluorescence assay
pKi: −log10 of the molar value. Peptide text beside a SMILES is read from it. * marks the point of attachment. X5 = CC(C)C[C@H](NC(=O)[C@H]1O[C@@H]1C(=O)*)C(=O)N[C@@H](Cc1c[nH]c2ccccc12)C(=O)N[C@H](C(N)=O)[C@@H](C)O; X3 = C[C@@H](O)[C@H](NC(=O)[C@@H]1CCCN1C(=O)[C@@H](NC(=O)[C@H]1O[C@@H]1C(=O)*)[C@@H](C)O)C(N)=O; X1 = CC(C)C[C@H](NC(=O)[C@H]1O[C@@H]1C(=O)*)C(=O)N1CCC[C@H]1C(=O)N[C@H](C(N)=O)[C@@H](C)O; X2 = CC(C)C[C@H](NC(=O)[C@@H]1O[C@H]1C(=O)*)C(=O)N1CCC[C@H]1C(=O)N[C@H](C(N)=O)[C@@H](C)O; X8 = CC(C)[C@H](NC(=O)[C@H]1O[C@@H]1C(=O)*)C(=O)N1CCC[C@H]1C(=O)N[C@H](C(N)=O)[C@@H](C)O
Kindly state pKi for each of the entries shown.

The cases that follow already have their pKi on record.
INPUT: Checklist item: pKi tested on Calpain-1 catalytic subunit (Homo sapiens), entry CC(C)[C@H](NC(=O)[C@H]1O[C@@H]1C(=O)N[C@@H](CO)C(=O)N1CCC[C@H]1C(=O)N1CCC[C@H]1C(=O)N1CCC[C@H]1C(=O)N[C@@H](CO)C(N)=O)C(=O)N1CCC[C@H]1C(=O)N[C@H](C(N)=O)[C@@H](C)O (X8-SPPPS-NH2) , value?
OUTPUT: < 4.30

INPUT: Then what about the molecule CC(C)C[C@H](NC(=O)[C@@H]1O[C@H]1C(=O)N[C@H](C(=O)N1CCC[C@H]1C(=O)N1CCC[C@H]1C(=O)N1CCC[C@H]1C(=O)N[C@@H](CO)C(N)=O)[C@@H](C)O)C(=O)N1CCC[C@H]1C(=O)N[C@H](C(N)=O)[C@@H](C)O (X2-TPPPS-NH2) ?
OUTPUT: < 4.30

INPUT: Again, but for CC(C)C[C@H](NC(=O)[C@@H]1O[C@H]1C(=O)N[C@@H](CO)C(=O)N1CCC[C@H]1C(=O)N1CCC[C@H]1C(=O)N1CCC[C@H]1C(=O)N[C@@H](CO)C(N)=O)C(=O)N1CCC[C@H]1C(=O)N[C@H](C(N)=O)[C@@H](C)O (X2-SPPPS-NH2)
OUTPUT: < 4.00

INPUT: Item: C[C@@H](O)[C@H](NC(=O)[C@@H]1CCCN1C(=O)[C@@H](NC(=O)[C@H]1O[C@@H]1C(=O)N[C@@H](CO)C(=O)N1CCC[C@H]1C(=O)N1CCC[C@H]1C(=O)N1CCC[C@H]1C(=O)N[C@@H](CO)C(N)=O)[C@@H](C)O)C(N)=O (X3-SPPPS-NH2)
OUTPUT: < 4.00

INPUT: Same again, this time with CC(C)C[C@H](NC(=O)[C@H]1O[C@@H]1C(=O)N[C@@H](CO)C(=O)N[C@@H](CCC(N)=O)C(=O)N1CCC[C@H]1C(=O)N1CCC[C@H]1C(=O)N[C@@H](CO)C(N)=O)C(=O)N1CCC[C@H]1C(=O)N[C@H](C(N)=O)[C@@H](C)O (X1-SQPPS-NH2)
OUTPUT: < 4.00

Okay, next one:
INPUT: // lookup pKi | system=Calpain-1 catalytic subunit (Homo sapiens) | key= CC(C)C[C@H](NC(=O)[C@H]1O[C@@H]1C(=O)N[C@@H](CO)C(=O)N1CCC[C@H]1C(=O)N1CCC[C@H]1C(=O)N1CCC[C@H]1C(=O)N[C@@H](CO)C(N)=O)C(=O)N[C@@H](Cc1c[nH]c2ccccc12)C(=O)N[C@H](C(N)=O)[C@@H](C)O (X5-SPPPS-NH2)
OUTPUT: 4.77
